- System: HOSE1C
- Protocol Summary: drug sensitivity score (DSS) from 5-point dose-response viability curve (DSS (area-under-curve based score)); higher = more sensitive (stronger growth inhibition or killing); extreme values may be limits of the assay
- Reported Conditions: exposure time: 72 h; concentration range: 5 concentrations over 10,000-fold range
Decision: drug sensitivity score compared against 2; not below it gives 1 (yes), below it gives 0 (no).

{"Molecule": "Cc1cccc(CC(=O)N2CCc3c2ccc(-c2cn(C)c4ncnc(N)c24)c3F)n1", "Class Label": "0 (no)"}
{"Molecule": "COc1cc(Nc2ncc3c(n2)-c2ccc(Cl)cc2C(c2c(F)cccc2OC)=NC3)ccc1C(=O)O", "Class Label": "1 (yes)"}
{"Molecule": "O=C(Nc1cccnc1)N1CCC(Cc2cccc(Oc3ccc(C(F)(F)F)cn3)c2)CC1", "Class Label": "0 (no)"}
{"Molecule": "Nc1nccc(-c2c(-c3ccc(F)cc3)ncn2C2CCCCC2)n1", "Class Label": "0 (no)"}
{"Molecule": "CNC(=O)c1cccc2cc(Oc3ccnc4cc(OCC5(N)CC5)c(OC)cc34)ccc12", "Class Label": "0 (no)"}
{"Molecule": "Cc1sc2c(c1C)C(c1ccc(Cl)cc1)=N[C@@H](CC(=O)Nc1ccc(OCCOCCOCCOCCNc3cccc4c3C(=O)N(C3CCC(=O)NC3=O)C4=O)cc1)c1nnc(C)n1-2 (stereo partly drawn)", "Class Label": "1 (yes)"}
{"Molecule": "CCc1cnn2c(NCc3ccc[n+]([O-])c3)cc(N3CCCC[C@H]3CCO)nc12", "Class Label": "1 (yes)"}
{"Molecule": "C[C@H](Nc1ncnc2[nH]cnc12)c1cc2ccc(F)cc2nc1-c1ccccn1", "Class Label": "0 (no)"}
